Biological target: MTHFD2 recombinant human enzyme (Homo sapiens)
Test: MTHFD2 inhibition assay (NAD(P)H-Glo luminescence)
pIC50: −log10 of the molar value.
Result type: pIC50

Worked examples follow.
molecule="COC[C@H]1CN(c2cc(C)c3c4c(c(=O)oc3c2C)CN(C(=O)c2cc(N(C)C)c(C(=O)NS(=O)(=O)N3C[C@@H]5C[C@H]3CO5)cc2F)CC4)CCN1C [Example 313]" target_under_test="MTHFD2 recombinant human enzyme (Homo sapiens)" result_type=pIC50 obs_value="8.00 to 9.00"
molecule="COC[C@H]1CN(c2cc(C)c3c4c(c(=O)oc3c2C)CN(C(=O)c2ccc(C(=O)NS(=O)(=O)C3(C)CC3)c(O[C@H]3C[C@@H]5C[C@@H]5C3)c2F)CC4)CCN1C [Example 68]" target_under_test="MTHFD2 recombinant human enzyme (Homo sapiens)" result_type=pIC50 obs_value="8.00 to 9.00"
molecule="COC[C@H]1CN(c2cc(C)c3c4c(c(=O)oc3c2C)CN(C(=O)c2cc(F)c(C(=O)NS(=O)(=O)N3CCCC3)cc2OC)CC4)CCN1C [Example 266]" target_under_test="MTHFD2 recombinant human enzyme (Homo sapiens)" result_type=pIC50 obs_value="8.00 to 9.00"
molecule="COC[C@H]1CN(c2cc(F)c3c4c(c(=O)oc3c2C)CN(C(=O)c2cc(N(C)C)c(C(=O)NS(=O)(=O)N3CCCC3)cc2F)CC4)CCN1C [Example 308]" target_under_test="MTHFD2 recombinant human enzyme (Homo sapiens)" result_type=pIC50 obs_value="8.00 to 9.00"
molecule="COC[C@H]1CN(c2cc(C)c3c4c(c(=O)oc3c2C)CN(C(=O)c2ccc(C(=O)NS(=O)(=O)N3C5CCC3CC5)c(OC)c2)CC4)CCN1C [Example 226]" target_under_test="MTHFD2 recombinant human enzyme (Homo sapiens)" result_type=pIC50 obs_value="7.00 to 8.00"

Query: Give a short answer stating reported pIC50 for CCOc1c(C(=O)NS(=O)(=O)N2CC3CCC(C3)C2)ccc(C(=O)N2CCc3c(c(=O)oc4c(C)c(N5CCN(C)[C@@H](COC)C5)ccc34)C2)c1F [Example 237] .
Result: 7.00 to 8.00

###

Molecular target: MTHFD2 recombinant human enzyme (Homo sapiens, UniProt P13995)
Sequence (P13995 36-350): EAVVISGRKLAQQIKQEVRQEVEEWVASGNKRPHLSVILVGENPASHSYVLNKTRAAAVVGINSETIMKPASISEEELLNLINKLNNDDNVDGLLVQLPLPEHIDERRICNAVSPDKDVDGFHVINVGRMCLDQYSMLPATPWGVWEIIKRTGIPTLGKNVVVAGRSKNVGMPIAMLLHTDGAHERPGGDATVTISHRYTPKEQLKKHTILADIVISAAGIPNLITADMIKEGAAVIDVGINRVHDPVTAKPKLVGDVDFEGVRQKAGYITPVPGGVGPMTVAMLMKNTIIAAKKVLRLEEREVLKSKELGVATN
Experiment: MTHFD2 inhibition assay (NAD(P)H-Glo luminescence)
pIC50: −log10 of the molar value.
# pIC50 per entry

chemical_string=COC[C@H]1CN(c2cc(C)c3c4c(c(=O)oc3c2C)CN(C(=O)c2ccc(C(=O)NS(=O)(=O)N3CCC(F)CC3)c(OC)c2F)CC4)CCN1C result_type=pIC50 obs_value="7.00 to 8.00"
chemical_string=COC[C@H]1CN(c2cc(F)c3c4c(c(=O)oc3c2C)CN(C(=O)c2cc(N(C)C)c(C(=O)NS(=O)(=O)N3C5CCC3CC5)cc2F)CC4)CCN1C result_type=pIC50 obs_value="7.00 to 8.00"

Consider now this further compound.
Query: Give recorded pIC50. `COC[C@H]1CN(c2ccc3c4c(c(=O)oc3c2Cl)CN(C(=O)c2ccc(C(=O)NS(=O)(=O)N3CCCC3)c(OC3CCC3)c2)CC4)CCN1C`
Result: 7.00 to 8.00

###

Target: MTHFD1 recombinant human enzyme (Homo sapiens)
Sequence (P11586 2-291 limits assumed): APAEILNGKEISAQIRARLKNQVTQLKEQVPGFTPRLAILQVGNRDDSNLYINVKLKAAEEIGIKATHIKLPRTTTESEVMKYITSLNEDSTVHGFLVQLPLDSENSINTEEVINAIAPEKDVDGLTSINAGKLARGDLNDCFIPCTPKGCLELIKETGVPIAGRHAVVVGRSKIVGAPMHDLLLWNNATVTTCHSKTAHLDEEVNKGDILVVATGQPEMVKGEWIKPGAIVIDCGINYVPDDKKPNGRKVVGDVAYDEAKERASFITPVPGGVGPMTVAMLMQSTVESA
Assay: MTHFD1 inhibition assay (NAD(P)H-Glo luminescence)
Conditions: MTHFD1 IC50, recombinant human enzyme 200 nM, NADP, band
IC50 overview

compound="COC[C@H]1CN(c2cc(C)c3c4c(c(=O)oc3c2C)CN(C(=O)c2ccc(C(=O)NS(=O)(=O)N3CC5CC5C3)c(OC3CC3)c2F)CC4)CCN1C (stereo partly shown)" obs_value="10 to 100 nM"

Query: Output measured IC50 for this item: `COC[C@H]1CN(c2cc(Cl)c3c4c(c(=O)oc3c2C)CN(C(=O)c2cc(OC)c(C(=O)NS(=O)(=O)N3CCCC3)cc2F)CC4)CCN1C`
Result: 1000 to 5000 nM

Query: Indicate the recorded IC50 value for this compound: `COC[C@H]1CN(c2cc(Cl)c3c4c(c(=O)oc3c2C)CN(C(=O)c2cc(F)c(C(=O)NS(=O)(=O)N3CCCC3)cc2C)CC4)CCN1C`
Result: 1000 to 5000 nM

Query: Give the reported value of IC50 for this record: `CCOc1cc(C(=O)N2CCc3c(c(=O)oc4c(C)c(N5CCN(C)[C@@H](COC)C5)cc(Cl)c34)C2)c(F)cc1C(=O)NS(=O)(=O)C1(C)CC1`
Result: 100 to 1000 nM

Query: For the compound COC[C@H]1CN(c2ccc3c4c(c(=O)oc3c2C)CN(C(=O)c2cc(Cl)c(C(=O)NS(=O)(=O)N(C)C)c(N3CC5CC5C3)c2)CC4)CCN1C (stereo partly shown) , give its reported IC50.
Result: 100 to 1000 nM

Query: Check the records and state IC50 for `[2H]C([2H])([2H])Oc1c(C(=O)NS(=O)(=O)N2C3CCC2CC3)ccc(C(=O)N2CCc3c(c(=O)oc4c(C)c(N5CCN(C)[C@@H](COC)C5)cc(C)c34)C2)c1F`
Result: 100 to 1000 nM

Query: # return recorded IC50 for input `COC[C@H]1CN(c2cc(C)c3c4c(c(=O)oc3c2C)CN(C(=O)c2cc(N(C)C)c(C(=O)NS(=O)(=O)N3CCC[C@@H](OC)C3)cc2F)CC4)CCN1C`
Result: 100 to 1000 nM
